- Assay System: Retinoic acid receptor RXR-alpha (Homo sapiens)
- Test Method Notes: OT_NURR1_NURR1RXRa_1440: Odyssey Thera (OT) 24-hour HEK293T Protein Complementation Assay for Nurr1/retinoid X receptor (RXR) (AID 2283386)
Results filed as inconclusive are left out. Activity calls are given as the source filed them. The calls were made as follows: active = hit-call score of the fitted dose curve at least 0.9, where 1 is the maximum; inconclusive = response in the unintended direction; inactive = score below 0.9.
Tick one outcome: active, inactive

Here's what some known entries look like.
Compound	Assigned Label
CC(C)(C)c1cc(CCC(=O)OCC(COC(=O)CCc2cc(C(C)(C)C)c(O)c(C(C)(C)C)c2)(COC(=O)CCc2cc(C(C)(C)C)c(O)c(C(C)(C)C)c2)COC(=O)CCc2cc(C(C)(C)C)c(O)c(C(C)(C)C)c2)cc(C(C)(C)C)c1O	inactive
CCCCC(CC)COC(=O)c1ccc(N(C)C)cc1 (stereo not drawn)	active

Hi, sorry to bother you, what did the test record for CCOC(=O)C1CC(=O)C(=C(O)C2CC2)C(=O)C1 (stereo not drawn) ?
inactive
